Biological target: T1, rabbit albumin (rabbit), P49065
T1 chain: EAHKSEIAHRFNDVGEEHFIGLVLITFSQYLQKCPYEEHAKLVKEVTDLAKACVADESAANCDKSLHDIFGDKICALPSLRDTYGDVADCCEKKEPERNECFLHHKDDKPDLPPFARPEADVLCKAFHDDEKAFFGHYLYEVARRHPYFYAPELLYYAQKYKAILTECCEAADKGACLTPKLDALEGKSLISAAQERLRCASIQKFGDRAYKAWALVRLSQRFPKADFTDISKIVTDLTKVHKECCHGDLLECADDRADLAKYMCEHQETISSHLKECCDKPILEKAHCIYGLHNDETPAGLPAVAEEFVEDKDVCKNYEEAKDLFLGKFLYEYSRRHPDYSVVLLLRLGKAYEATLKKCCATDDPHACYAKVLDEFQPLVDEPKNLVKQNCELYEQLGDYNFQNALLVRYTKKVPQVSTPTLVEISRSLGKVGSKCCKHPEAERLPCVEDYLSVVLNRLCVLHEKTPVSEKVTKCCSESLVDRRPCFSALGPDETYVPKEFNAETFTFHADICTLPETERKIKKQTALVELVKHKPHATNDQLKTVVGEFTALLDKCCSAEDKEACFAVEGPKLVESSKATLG
Assay: SA08b binding assay: competition with biotinylated SA08b for immobilized albumin
PROPERTY LABEL: IC50 (nM)

[A] RLMEDICLPRWGCLWEDD (modifications not checked) [SA10]
[B] RLMEDICLARWGCLWEDD (modifications not checked) [SA13]
q: Which is greater in IC50, the first item A or the second item B ? Refer to your chosen item by its label in the answer.
a: B
(B: 3200 nM, A: 86 nM)
